Recorded values, source the RNAGym collection of RNA variant scans (doi:10.7554/elife.80360).

B1: Twister Ribozyme (parent)
chain: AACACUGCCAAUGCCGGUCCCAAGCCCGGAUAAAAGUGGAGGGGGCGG

- Variants of: B1
- TEST DESCRIPTION: self-cleavage, relative activity (ratio to wild type); higher = more cleavage; co-transcriptional
Recorded self-cleavage split into classes bucket A = under 0.1, bucket B = from 0.1 up to 0.4, bucket C = 0.4 and over

MUTATION CODE: C26U A30U
ASSIGNED LABEL: bucket C
//
MUTATION CODE: U6A A23C
ASSIGNED LABEL: bucket A
//
MUTATION CODE: C14A G17U
ASSIGNED LABEL: bucket B
//
MUTATION CODE: C21G G43U
ASSIGNED LABEL: bucket A
//
MUTATION CODE: C8G G41C
ASSIGNED LABEL: bucket B
//
MUTATION CODE: C5A U37G
ASSIGNED LABEL: bucket C
//
MUTATION CODE: C25G A33C
ASSIGNED LABEL: bucket B
//
MUTATION CODE: U31G G42U
ASSIGNED LABEL: bucket C
//
MUTATION CODE: C25U C26U
ASSIGNED LABEL: bucket B
//
MUTATION CODE: A4U G36A
ASSIGNED LABEL: bucket A
//
MUTATION CODE: A11U A32C
ASSIGNED LABEL: bucket C
//
MUTATION CODE: G7U G44A
ASSIGNED LABEL: bucket B
//
MUTATION CODE: G17C G28A
ASSIGNED LABEL: bucket A
//
MUTATION CODE: C15A A23U
ASSIGNED LABEL: bucket A
//
MUTATION CODE: G16U G24A
ASSIGNED LABEL: bucket B
//
MUTATION CODE: A11U A30G
ASSIGNED LABEL: bucket C
//
MUTATION CODE: G36C G47U
ASSIGNED LABEL: bucket B
//
MUTATION CODE: G28A G43A
ASSIGNED LABEL: bucket B
//
MUTATION CODE: A1G
ASSIGNED LABEL: bucket C
//
MUTATION CODE: G7U U37A
ASSIGNED LABEL: bucket A
//
MUTATION CODE: A22U G44C
ASSIGNED LABEL: bucket C
//
MUTATION CODE: U18G G41C
ASSIGNED LABEL: bucket A
//
MUTATION CODE: A1U C26A
ASSIGNED LABEL: bucket A
//
MUTATION CODE: U18G A23C
ASSIGNED LABEL: bucket A
//
MUTATION CODE: C25U G41U
ASSIGNED LABEL: bucket B
//
MUTATION CODE: A1C G43C
ASSIGNED LABEL: bucket B
//
MUTATION CODE: G7A A33C
ASSIGNED LABEL: bucket B
//
MUTATION CODE: U31C G44U
ASSIGNED LABEL: bucket C
//
MUTATION CODE: A10G G48U
ASSIGNED LABEL: bucket C
//
MUTATION CODE: A11U A30U
ASSIGNED LABEL: bucket C
//
MUTATION CODE: G29C U31C
ASSIGNED LABEL: bucket C
//
MUTATION CODE: C9G G16A
ASSIGNED LABEL: bucket B
//
MUTATION CODE: U12A A30U
ASSIGNED LABEL: bucket C
//
MUTATION CODE: C25A G39A
ASSIGNED LABEL: bucket A
//
MUTATION CODE: G7C U12C
ASSIGNED LABEL: bucket A
//
MUTATION CODE: C9G G47C
ASSIGNED LABEL: bucket B
//
MUTATION CODE: G7A A11C
ASSIGNED LABEL: bucket A
//
MUTATION CODE: C20U
ASSIGNED LABEL: bucket C
//
MUTATION CODE: U31G A35G
ASSIGNED LABEL: bucket C
//
MUTATION CODE: A2G G29A
ASSIGNED LABEL: bucket B
//
MUTATION CODE: A32U G47C
ASSIGNED LABEL: bucket C
//
MUTATION CODE: C21U G47U
ASSIGNED LABEL: bucket B
//
MUTATION CODE: A22G G48C
ASSIGNED LABEL: bucket B
//
MUTATION CODE: C25U G45U
ASSIGNED LABEL: bucket C
